Where these numbers come from: ChEMBL document CHEMBL3045179

# measurement_notes: Octanol-water partition coefficient, log P of the compound
# Type: physicochemical
# experimental_setup: read-out: logP
test_readout: logP

> print(dat)
                            substance.smiles  test.readout  obs.value
 1        CNc1nc(-c2ccccc2)nc(C(Cl)(Cl)Cl)n1          logP        4.7
 2         CCCCN(CC)c1nc(C)nc(C(Cl)(Cl)Cl)n1          logP       6.17
 3             Cc1nc(N(C)C)nc(C(Cl)(Cl)Cl)n1          logP       4.07
 4                 Nc1nc(N)nc(C(Cl)(Cl)Cl)n1          logP       1.21
 5     CN(C)c1nc(-c2ccccc2)nc(C(Cl)(Cl)Cl)n1          logP        5.4
 6      CSc1nc(C(Cl)(Cl)Cl)nc(C(Cl)(Cl)Cl)n1          logP       4.21
 7      CCCNc1nc(-c2ccccc2)nc(C(Cl)(Cl)Cl)n1          logP       5.75
 8             CCCCNc1nc(C)nc(C(Cl)(Cl)Cl)n1          logP       5.08
 9  ClC(Cl)(Cl)c1nc(Nc2ccccc2)nc(C(Cl)(Cl)Cl)n1          logP       4.33
10         Nc1nc(-c2ccccc2)nc(C(Cl)(Cl)Cl)n1          logP       4.02
11      COc1nc(C(Cl)(Cl)Cl)nc(C(Cl)(Cl)Cl)n1          logP       3.59
12              CCOc1nc(SC)nc(C(Cl)(Cl)Cl)n1          logP       4.64
13       CCCCCCCCCCNc1nc(C)nc(C(Cl)(Cl)Cl)n1          logP       8.27
14        COc1nc(-c2ccccc2)nc(C(Cl)(Cl)Cl)n1          logP       5.17
15                CSc1nc(N)nc(C(Cl)(Cl)Cl)n1          logP       2.96
16    CCCNc1nc(C(Cl)(Cl)Cl)nc(C(Cl)(Cl)Cl)n1          logP       4.19
17  CCCCCCCCCCCCNc1nc(C(Cl)(Cl)Cl)nc(C(Cl)(Cl)Cl)n1          logP       8.96
18          CCCCN(C)c1nc(C)nc(C(Cl)(Cl)Cl)n1          logP       5.65
19         Cc1nc(Nc2ccccc2)nc(C(Cl)(Cl)Cl)n1          logP        4.7
20  CCCCCNc1nc(C(Cl)(Cl)Cl)nc(C(Cl)(Cl)Cl)n1          logP       5.25
21  CCCCCCNc1nc(C(Cl)(Cl)Cl)nc(C(Cl)(Cl)Cl)n1          logP       5.79
22       CCOc1nc(-c2ccccc2)nc(C(Cl)(Cl)Cl)n1          logP        5.7
23           CCCCCCNc1nc(C)nc(C(Cl)(Cl)Cl)n1          logP       6.13
24      CCCOc1nc(-c2ccccc2)nc(C(Cl)(Cl)Cl)n1          logP       6.22
25                COc1nc(N)nc(C(Cl)(Cl)Cl)n1          logP       2.36

----------
# Test system: Nitrosomonas sp. TK794
# measurement_notes: Inhibition of Nitrosomonas sp. TK794-mediated nitrification activity assessed as nitrite nitrogen formation at 0.5 mg/kg after 7 to 10 days by Griess-Ilosvay method relative to control
# Assay type: functional
Listed here are molecules together with their documented inhibition in vivo at 0.5 mg/kg.
test_readout: inhibition in vivo at 0.5 mg/kg (%)

> print(dat)
                           substance.smiles                     test.readout  unit.of.measure  obs.value
1       CCNc1nc(-c2ccccc2)nc(C(Cl)(Cl)Cl)n1  inhibition in vivo at 0.5 mg/kg                %       47.8
2      CSc1nc(C(Cl)(Cl)Cl)nc(C(Cl)(Cl)Cl)n1  inhibition in vivo at 0.5 mg/kg                %       41.3
3                COc1nc(N)nc(C(Cl)(Cl)Cl)n1  inhibition in vivo at 0.5 mg/kg                %       29.5
4   CN(C)c1nc(C(Cl)(Cl)Cl)nc(C(Cl)(Cl)Cl)n1  inhibition in vivo at 0.5 mg/kg                %       60.5
5       Cc1nc(C(Cl)(Cl)Cl)nc(C(Cl)(Cl)Cl)n1  inhibition in vivo at 0.5 mg/kg                %         65
6                COc1nc(C)nc(C(Cl)(Cl)Cl)n1  inhibition in vivo at 0.5 mg/kg                %         32
7  ClC(Cl)(Cl)c1nc(Nc2ccccc2)nc(C(Cl)(Cl)Cl)n1  inhibition in vivo at 0.5 mg/kg                %         55
8      CCCNc1nc(-c2ccccc2)nc(C(Cl)(Cl)Cl)n1  inhibition in vivo at 0.5 mg/kg                %       58.1
9        CNc1nc(-c2ccccc2)nc(C(Cl)(Cl)Cl)n1  inhibition in vivo at 0.5 mg/kg                %       57.1

----------
Listed here are molecules together with their documented logP.
# measurement_notes: Octanol-water partition coefficient, log P of the compound
# Type: physicochemical
# experimental_setup: read-out: logP
test_readout: logP

> print(dat)
                            substance.smiles  obs.value
 1      CNc1nc(C(Cl)(Cl)Cl)nc(C(Cl)(Cl)Cl)n1       3.14
 2       Cc1nc(C(Cl)(Cl)Cl)nc(C(Cl)(Cl)Cl)n1       4.07
 3            CCCCCNc1nc(C)nc(C(Cl)(Cl)Cl)n1       5.61
 4       CCNc1nc(-c2ccccc2)nc(C(Cl)(Cl)Cl)n1       5.23
 5  CCCCCCCCCCNc1nc(C(Cl)(Cl)Cl)nc(C(Cl)(Cl)Cl)n1        7.9
 6     CCOc1nc(C(Cl)(Cl)Cl)nc(C(Cl)(Cl)Cl)n1       4.14
 7   CCCCNc1nc(C(Cl)(Cl)Cl)nc(C(Cl)(Cl)Cl)n1       4.72
 8   CN(C)c1nc(C(Cl)(Cl)Cl)nc(C(Cl)(Cl)Cl)n1        3.7
 9          CCCCCCCNc1nc(C)nc(C(Cl)(Cl)Cl)n1       6.66
10        CCCCCCCCCNc1nc(C)nc(C(Cl)(Cl)Cl)n1       7.72
11  ClC(Cl)(Cl)c1nc(C(Cl)(Cl)Cl)nc(C(Cl)(Cl)Cl)n1       3.71
12              CCCCc1nc(N)nc(C(Cl)(Cl)Cl)n1        4.4

----------
Listed here are molecules together with their documented logP.
# measurement_notes: Octanol-water partition coefficient, log P of the compound
# Format: physicochemical
# experimental_setup: read-out: logP
test_readout: logP

> print(dat)
                            substance.smiles  test.readout  obs.value
 1  ClC(Cl)(Cl)c1nc(-c2ccccc2)nc(C(Cl)(Cl)Cl)n1          logP       5.26
 2                 Cc1nc(N)nc(C(Cl)(Cl)Cl)n1          logP       2.82
 3  Fc1ccc(Oc2nc(C(Cl)(Cl)Cl)nc(C(Cl)(Cl)Cl)n2)c(Cl)c1          logP       5.74
 4       CCCCN(CCCC)c1nc(C)nc(C(Cl)(Cl)Cl)n1          logP       7.23
 5                COc1nc(C)nc(C(Cl)(Cl)Cl)n1          logP       3.98
 6              CCCNc1nc(C)nc(C(Cl)(Cl)Cl)n1          logP       4.56
 7             CCCOc1nc(SC)nc(C(Cl)(Cl)Cl)n1          logP       5.17
 8     CCNc1nc(C(Cl)(Cl)Cl)nc(C(Cl)(Cl)Cl)n1          logP       3.68
 9       Nc1nc(C(Cl)(Cl)Cl)nc(C(Cl)(Cl)Cl)n1          logP       2.45
10    CCCCc1nc(C(Cl)(Cl)Cl)nc(C(Cl)(Cl)Cl)n1          logP       5.65
11     Cc1nc(Oc2ccc(Cl)cc2)nc(C(Cl)(Cl)Cl)n1          logP       5.94
12              CCNc1nc(OC)nc(C(Cl)(Cl)Cl)n1          logP       3.57
